Please provide measured log10(IC50) for the entries that follow.
Recall that a logarithmic scale is used here: each number is log10 of IC50 in µM.

Test item `Fc1cccc(COc2ccc(Nc3ncnc4ccc(-c5ccn(CCCN6CCCCC6)c5)cc34)cc2Cl)c1` ; EGFR (human) (UniProt P00533); reported log10(IC50) was -2.05

Result for `CN1CCN(Cc2cn(-c3ccc4ncnc(Nc5ccc(OCc6ccccn6)c(Cl)c5)c4c3)cc2CCO)CC1` , tested on EGFR (human) (UniProt P00533), log10(IC50): -1.59

log10(IC50) value, target or system EGFR (human) (UniProt P00533), for `O=C(Cn1ccc(-c2ccc3ncnc(Nc4ccc(OCc5cccc(F)c5)c(Cl)c4)c3c2)c1)N1CCC(N2CCCC2)CC1` : -0.97

Readout log10(IC50) for `O=S1(=O)CCC(CNCc2cn(-c3ccc4ncnc(Nc5ccc(OCc6cccc(F)c6)c(Cl)c5)c4c3)cc2CCO)CC1` , test system EGFR (human) (UniProt P00533), was -1.62

// log10(IC50) (EGFR (human) (UniProt P00533)) for `CS(=O)(=O)CCNCc1cn(-c2ccc3ncnc(Nc4ccc(F)c(Cl)c4)c3c2)cc1CCO` = -1.19

====

For each record, write down the corresponding pIC50.
target-of-assay: EGFR (human) (UniProt P00533)
Sequence (P00533 whole entry, looked up): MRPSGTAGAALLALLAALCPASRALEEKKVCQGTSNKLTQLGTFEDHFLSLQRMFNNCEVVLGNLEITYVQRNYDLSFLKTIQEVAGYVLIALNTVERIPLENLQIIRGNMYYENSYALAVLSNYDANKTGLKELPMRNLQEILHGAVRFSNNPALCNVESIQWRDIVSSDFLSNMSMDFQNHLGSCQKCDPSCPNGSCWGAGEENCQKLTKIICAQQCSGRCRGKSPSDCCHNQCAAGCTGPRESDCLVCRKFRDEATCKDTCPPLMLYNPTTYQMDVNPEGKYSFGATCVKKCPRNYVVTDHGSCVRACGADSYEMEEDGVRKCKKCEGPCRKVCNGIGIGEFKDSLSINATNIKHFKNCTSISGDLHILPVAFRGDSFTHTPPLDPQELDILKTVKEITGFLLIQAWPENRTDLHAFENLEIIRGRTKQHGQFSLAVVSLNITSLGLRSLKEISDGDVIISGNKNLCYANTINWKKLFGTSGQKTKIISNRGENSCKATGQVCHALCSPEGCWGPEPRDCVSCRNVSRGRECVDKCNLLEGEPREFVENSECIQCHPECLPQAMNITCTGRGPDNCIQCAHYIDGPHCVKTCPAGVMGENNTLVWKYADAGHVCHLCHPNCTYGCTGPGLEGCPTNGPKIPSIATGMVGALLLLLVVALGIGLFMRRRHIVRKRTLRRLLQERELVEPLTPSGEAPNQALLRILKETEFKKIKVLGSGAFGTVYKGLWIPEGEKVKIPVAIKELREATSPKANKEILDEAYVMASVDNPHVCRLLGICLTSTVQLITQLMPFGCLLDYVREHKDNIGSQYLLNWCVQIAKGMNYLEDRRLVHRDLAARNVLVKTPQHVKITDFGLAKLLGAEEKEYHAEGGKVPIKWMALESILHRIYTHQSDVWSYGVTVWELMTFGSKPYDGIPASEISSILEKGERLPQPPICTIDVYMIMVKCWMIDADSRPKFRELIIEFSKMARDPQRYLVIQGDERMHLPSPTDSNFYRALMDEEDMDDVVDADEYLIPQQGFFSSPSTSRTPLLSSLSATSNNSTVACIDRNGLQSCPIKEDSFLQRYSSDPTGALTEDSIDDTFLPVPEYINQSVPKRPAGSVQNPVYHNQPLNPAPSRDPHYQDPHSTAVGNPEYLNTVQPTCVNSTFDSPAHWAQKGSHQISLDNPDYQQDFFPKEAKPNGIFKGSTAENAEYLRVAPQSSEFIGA
measurement-conditions: a431
When answering, recall that pIC50 equals minus log10 of the concentration in mol/L, and write that number alone.

The observed pIC50 for `Fc1cccc(Cn2ncc3cc(Nc4ncnc5ccc(-c6ccn(CCN7CCOCC7)c6)cc45)ccc32)c1` when tested with EGFR (human) (UniProt P00533) stands at 7.00

Log: EGFR (human) (UniProt P00533), molecule CCN(CC)CC(O)Cn1ccc(-c2ccc3ncnc(Nc4ccc5c(cnn5Cc5cccc(F)c5)c4)c3c2)c1 (stereo not drawn) , pIC50 = 6.92

Item: `CN1CCN(CCNCc2cn(-c3ccc4ncnc(Nc5ccc(OCc6cccc(F)c6)c(Cl)c5)c4c3)cc2C(F)(F)F)CC1` | System: EGFR (human) (UniProt P00533) | pIC50: 6.80

====

Exercise: for every item that follows, state its recorded IC50.
Please respond with the number in µM and leave the unit unwritten.

Short answer on EGFR (human) (UniProt P00533) for `O[C@@H](CN1CCOCC1)Cn1ccc(-c2ccc3ncnc(Nc4ccc5c(cnn5Cc5cccc(F)c5)c4)c3c2)c1` , IC50: 0.008

Log: EGFR (human) (UniProt P00533), compound OC(CNCCN1CCCCC1)Cn1ccc(-c2ccc3ncnc(Nc4ccc(OCc5cccc(F)c5)c(Cl)c4)c3c2)c1 (stereo not drawn) , IC50 = 0.092

Bench note, EGFR (human) (UniProt P00533): entry `Fc1cccc(COc2ccc(Nc3ncnc4ccc(-c5ccn(CCCN6CCN(c7cccc(Cl)c7)CC6)c5)cc34)cc2Cl)c1` , its IC50 = 0.032

====

Please provide measured IC50 for the entries that follow.
Use nM as the unit, but write only the number.

Result for `COCCNCc1cc(-c2ccc3ncnc(Nc4ccc(OCc5cccc(F)c5)c(Cl)c4)c3c2)c[nH]1` , tested on EGFR (human), IC50: 31

Short answer on EGFR (human) for `OC1(Cn2ccc(-c3ccc4ncnc(Nc5ccc(OCc6cccc(F)c6)c(Cl)c5)c4c3)c2)CCNCC1` , IC50: 12

Considering `O=C1CCc2cn(-c3ccc4ncnc(Nc5ccc(OCc6cccc(F)c6)c(Cl)c5)c4c3)cc21` , its IC50 with EGFR (human) was recorded as 2

Record `Fc1cccc(COc2ccc(Nc3ncnc4ccc(-c5ccn(CCN6CCNCC6)c5)cc34)cc2Cl)c1` has EGFR (human) IC50 equal to 2

// IC50 (EGFR (human)) for `CCN(CC)Cc1cn(-c2ccc3ncnc(Nc4ccc(OCc5cccc(F)c5)c(Cl)c4)c3c2)cc1CCO` = 37

Entry OC(CNC1CC1)Cn1ccc(-c2ccc3ncnc(Nc4ccc5c(cnn5Cc5cccc(F)c5)c4)c3c2)c1 (stereo not drawn) ; assay system EGFR (human); IC50 recorded at 12

Lab note: compound `O=S1(=O)CCC(NCCn2ccc(-c3ccc4ncnc(Nc5ccc(OCc6cccc(F)c6)c(Cl)c5)c4c3)c2)CC1` tested on EGFR (human); recorded IC50 was 492

Form: item OC(CN1CCOCC1)Cn1ccc(-c2ccc3ncnc(Nc4ccc(OCc5cccc(F)c5)c(Cl)c4)c3c2)c1 (stereo not drawn) ; test system EGFR (human); IC50: 12

Response field IC50 (EGFR (human)) for item `O=C(Cn1ccc(-c2ccc3ncnc(Nc4ccc(OCc5cccc(F)c5)c(Cl)c4)c3c2)c1)NCC1(O)CCS(=O)(=O)CC1` : 17

Record `O=S1(=O)CCC(O)(CNCc2cn(-c3ccc4ncnc(Nc5ccc(OCc6cccc(F)c6)c(Cl)c5)c4c3)cc2C(F)(F)F)CC1` ; system EGFR (human); IC50 = 16

Field IC50 (system: EGFR (human)) for entry `O=C(c1cn(-c2ccc3ncnc(Nc4ccc(OCc5cccc(F)c5)c(Cl)c4)c3c2)cc1CCN1CCOCC1)N1CCOCC1` = 25

Field IC50 (system: EGFR (human)) for entry `CN1CCN(C(=O)c2cn(-c3ccc4ncnc(Nc5ccc(OCc6ccccn6)c(Cl)c5)c4c3)cc2CCO)CC1` = 60

// compound `O=C(Cn1ccc(-c2ccc3ncnc(Nc4ccc(OCc5cccc(F)c5)c(Cl)c4)c3c2)c1)NC1CCS(=O)(=O)CC1` , assay EGFR (human), IC50 value: 140

Entry `Fc1cccc(COc2ccc(Nc3ncnc4ccc(-c5ccn(C[C@H]6CCNC6)c5)cc34)cc2Cl)c1` : IC50 on EGFR (human) = 638

Observed IC50, EGFR (human), `Fc1cccc(COc2ccc(Nc3ncnc4ccc(-n5cc(CN6CCCCC6)c(CN6CCCCC6)c5)cc34)cc2Cl)c1` : 291

Sample COCCNCC(O)Cn1ccc(-c2ccc3ncnc(Nc4ccc(OCc5cccc(F)c5)c(Cl)c4)c3c2)c1 (stereo not drawn) , system: EGFR (human). Its IC50 is 11

Item `Fc1cccc(COc2ccc(Nc3ncnc4ccc(-n5cc(CNCCN6CCCC6)c(C(F)(F)F)c5)cc34)cc2Cl)c1` was tested on EGFR (human); the reported IC50 is 55

Considering `Fc1cccc(COc2ccc(Nc3ncnc4ccc(-c5ccn(CCNC6CC6)c5)cc34)cc2Cl)c1` , its IC50 with EGFR (human) was recorded as 239

====

target-of-assay: UniProt:P00533
measurement-conditions: a431
reported-property: IC50
In your response, put the unit directly after the numeric value.

Just so you know, measured IC50 for `O=C(Cn1ccc(-c2ccc3ncnc(Nc4ccc(OCc5cccc(F)c5)c(Cl)c4)c3c2)c1)N1CCC(N2CCOCC2)CC1` came out at 0.853 µM

Entry under test: `CN1CCN(C(=O)c2cn(-c3ccc4ncnc(Nc5ccc(OCc6cccc(F)c6)c(Cl)c5)c4c3)cc2CCO)CC1` . Its IC50 was 1.43 µM

Notebook: CCOC(=O)C1CCCN(CC(O)Cn2ccc(-c3ccc4ncnc(Nc5ccc(OCc6cccc(F)c6)c(Cl)c5)c4c3)c2)C1 (centres undefined) , IC50 read as 1.7 µM

# IC50 (compound: `Fc1cccc(COc2ccc(Nc3ncnc4ccc(-c5ccn(CCc6ccccn6)c5)cc34)cc2Cl)c1` ) is 1.19 µM

So for `COC[C@H](O)Cn1ccc(-c2ccc3ncnc(Nc4ccc(OCc5cccc(F)c5)c(Cl)c4)c3c2)c1` , the logged IC50 turned out to be 0.462 µM

The compound identified as `OCCc1cn(-c2ccc3ncnc(Nc4ccc(OCc5ccccn5)c(Cl)c4)c3c2)cc1CN1CCCCC1` registered its IC50 at 0.003 µM

The compound `O=S1(=O)CCC(CNCc2ccn(-c3ccc4ncnc(Nc5ccc(OCc6cccc(F)c6)c(Cl)c5)c4c3)c2)CC1` showed IC50 equal to 0.49 µM

Just so you know, measured IC50 for `O=C(Cn1ccc(-c2ccc3ncnc(Nc4ccc(OCc5cccc(F)c5)c(Cl)c4)c3c2)c1)N1CCC(N2CCCCC2)CC1` came out at 0.295 µM

The compound identified as `O=C(c1cn(-c2ccc3ncnc(Nc4ccc(OCc5cccc(F)c5)c(Cl)c4)c3c2)cc1CCO)N1CCCC1` registered its IC50 at 0.09 µM

Sample `CN1CCN(C(=O)c2cn(-c3ccc4ncnc(Nc5ccc(OCc6ccccn6)c(Cl)c5)c4c3)cc2CCO)CC1` ; IC50 observed: 0.13 µM

The recorded IC50 for entry `Fc1cccc(COc2ccc(Nc3ncnc4ccc(-c5ccn(CCc6ccncc6)c5)cc34)cc2Cl)c1` equals 0.874 µM

// sample `CN1CCN(CCn2ccc(-c3ccc4ncnc(Nc5ccc(OCc6cccc(F)c6)c(Cl)c5)c4c3)c2)CC1` , its IC50 was 1.78 µM

Consider `O=C(Cn1ccc(-c2ccc3ncnc(Nc4ccc(OCc5cccc(F)c5)c(Cl)c4)c3c2)c1)N1CCN(CC2CC2)CC1` . Its measured IC50 is 1.98 µM

Sure, the documented IC50 for O=C1CN(CC(O)Cn2ccc(-c3ccc4ncnc(Nc5ccc(OCc6cccc(F)c6)c(Cl)c5)c4c3)c2)CCN1 (centres undefined) is 1.22 µM

Record CC(Nc1ncnc2ccc(-n3cc(CCO)c(CN4CCCCC4)c3)cc12)c1ccccc1 (centres undefined) . Reported IC50: 0.56 µM

Measured IC50 of OC(CN1CCSC1)Cn1ccc(-c2ccc3ncnc(Nc4ccc(OCc5cccc(F)c5)c(Cl)c4)c3c2)c1 (centres undefined) : 0.553 µM

So for `O=S1(=O)CCC(NCCn2ccc(-c3ccc4ncnc(Nc5ccc(OCc6cccc(F)c6)c(Cl)c5)c4c3)c2)CC1` , the logged IC50 turned out to be 1.42 µM

response.value for `OCCc1cn(-c2ccc3ncnc(Nc4ccc(F)c(Cl)c4)c3c2)cc1CN1CCCC1` (field: IC50) = 0.06 µM

IC50 recorded for this compound, OCCN1CCN(CC(O)Cn2ccc(-c3ccc4ncnc(Nc5ccc6c(cnn6Cc6cccc(F)c6)c5)c4c3)c2)CC1 (centres undefined) , is 0.459 µM

Entry OC(CN1CCC(N2CCCC2)CC1)Cn1ccc(-c2ccc3ncnc(Nc4ccc(OCc5cccc(F)c5)c(Cl)c4)c3c2)c1 (centres undefined) — recorded IC50 = 0.362 µM

// IC50 value for `CN1CCN(CCNC(=O)c2cn(-c3ccc4ncnc(Nc5ccc(OCc6cccc(F)c6)c(Cl)c5)c4c3)cc2CCO)CC1` : 0.01 µM

IC50 recorded for this compound, `Fc1cccc(COc2ccc(Nc3ncnc4ccc(-c5cc(CNCCN6CCOCC6)c[nH]5)cc34)cc2Cl)c1` , is 0.24 µM

Value of IC50 reported for the compound `Fc1cccc(COc2ccc(Nc3ncnc4ccc(-n5cccc5)cc34)cc2Cl)c1` is 0.36 µM

Reported IC50 ( CS(=O)(=O)CCNCC(O)Cn1ccc(-c2ccc3ncnc(Nc4ccc5c(cnn5Cc5cccc(F)c5)c4)c3c2)c1 (centres undefined) ) = 0.43 µM
